Values from ChEMBL document CHEMBL3271942

System: Canis familiaris
Assay: Diuretic activity in mongrel dog assessed as excretion of chloride ion at 10 mg/kg, iv measured after 15 and 45 mins (reference value: 4 to 64 uequiv/min)
Format: functional, Canis lupus familiaris, Urine
READOUT_NAME: log10(Activity) (log10 of the value in uEq/min)
Give log10 of Activity, with Activity taken in uEq/min.

Look up log10(Activity) for the entries below, preserving their order.
1. C=C(CC)C(=O)c1ccc(OCC(=O)O)c(Cl)c1Cl
2. CC(=O)/C=C/c1ccc(OCC(=O)O)cc1
3. CCC(=O)/C=C/c1ccc(OCC(=O)O)c(Cl)c1Cl
4. CCC(=O)/C(C)=C/c1ccc(OCC(=O)O)c(Cl)c1Cl
5. O=C(O)COc1ccc(/C=C2\CCC2=O)c(Cl)c1Cl
6. CC(=O)/C=C/c1ccc(OCC(=O)O)cc1Cl

Solution:
1: 3.52; 2: 1.74; 3: 3.04; 4: 1.83; 5: 2.91; 6: 2.41
